Tested on: blackgrass (Alopecurus myosuroides)
experiment-summary: Test C postemergence
Type: in vivo
test-context: 31 g ai/ha
measured-endpoint: Plant response rating (scale of 0 to 100), Blackgrass

Look over these answered cases.
molecule-smiles | endpoint-result
CNc1nc(C2CC2)nc(C(=O)OC)c1Cl | 40
Nc1nc(-c2ccc(Br)cc2)nc(C(=O)O)c1Br | 55
COC(=O)c1nc(C(C)C)nc(N)c1Br | 0

Please look at `Nc1nc(C2CC2)nc(C(=O)OCc2ccccc2)c1Cl` and tell me its recorded Plant response rating (scale of 0 to 100), Blackgrass on blackgrass (Alopecurus myosuroides). 0

* * *

System: crabgrass (Digitaria sanguinalis)
experiment-summary: Test B pre/postemergence
Assay type: in vivo
test-context: Digitaria sanguinalis, post-emergence, Postemergence, 500 g ai/ha; scale 0 to 100; read-out: Plant response rating, Crabgrass
Response field label takes yes when pest or weed control at 500 g/ha is strictly below 40% and no in all other cases.

Say whether its pest or weed control at 500 g/ha is strictly beneath 40%. Entry: `COC(=O)c1nc(-c2ccccc2)nc(N)c1Br` yes

* * *

Hi there, I'd appreciate the recorded Plant response rating, Foxtail, Giant for every entry that follows.
Tested on: giant foxtail (Setaria faberi)
experiment-summary: Test A pre/postemergence
Format: in vivo
test-context: Postemergence, 500 g ai/ha; 0 to 100 scale (0 no effect, 100 complete control)

Answered examples (3):
compound | tested-system | endpoint-result
Nc1nc(C2CC2)nc(C(=O)OCCCOC(=O)c2nc(C3CC3)nc(N)c2Cl)c1Cl [Compound 142] | giant foxtail (Setaria faberi) | 45
CCOC(=O)c1nc(-c2ccc(Cl)c(Cl)c2)nc(N)c1Br [Compound 66] | giant foxtail (Setaria faberi) | 0
CCOC(=O)c1nc(-c2ccc(Cl)cc2)nc(N)c1I [Compound 137] | giant foxtail (Setaria faberi) | 0

Go through the list and state Plant response rating, Foxtail, Giant for each entry.
1. CCOC(=O)COc1nc(C2CC2)nc(N)c1Cl [Compound 115]
2. Nc1nc(C2CC2)nc(C(=O)Oc2ccc(Cl)cc2)c1Cl [Compound 145]
3. CCOC(=O)c1nc(-c2ccc(OC(F)(F)F)cc2)nc(N)c1Cl [Compound 103]

1. 0
2. 70
3. 0

* * *

Tested on: giant foxtail (Setaria faberi)
experiment-summary: Test A pre/postemergence
Assay type: in vivo
test-context: Setaria faberi, post-emergence, 240 h, Postemergence, 500 g ai/ha; 0 to 100 scale (0 no effect, 100 complete control); read-out: Plant response rating, Foxtail, Giant
The threshold is inclusive: pest or weed control at 500 g/ha of exactly 30% counts as fulfilled; values below receive not fulfilled.

compound | tested-system | assigned-class
Nc1nc(-c2ccc(Cl)cc2)nc(C(=O)O)c1Cl [Compound 65] | giant foxtail (Setaria faberi) | fulfilled

// inclusive: pest or weed control at 500 g/ha at least 30%? input: CNc1nc(C2CC2)nc(C(=O)OC)c1Cl [Compound 79] fulfilled

Does the compound Nc1nc(C2CC2)nc(C(=O)OCc2ccccc2)c1Cl [Compound 78] have recorded pest or weed control at 500 g/ha that is 30% or more? fulfilled

I'd appreciate it if you could say whether CCOC(=O)c1nc(-c2ccc3c(c2)OCO3)nc(N)c1Br [Compound 68] has pest or weed control at 500 g/ha at least equal to 30%. not fulfilled

Check if pest or weed control at 500 g/ha >= 30% (inclusive). Item: COC(=O)c1nc(C(C)C)nc(N)c1Cl [Compound 110] not fulfilled

This collection of values is drawn from patent US8802597B2.
